// MICs in the presence or absence of spermine (1 mM): Spermine lookup, one value per entry
- System: methicillin resistant Staphylococcus aureus (MRSA) Mu50
- PROCEDURE_SUMMARY: MIC of antibiotics against MRSA Mu50 with or without spermine
- Format: cell-based
- CONDITIONS_USED: with 1 mM spermine

Recorded MICs in the presence or absence of spermine (1 mM): Spermine, per entry:
- SMILES: "CC1(C)S[C@@H]2[C@H](NC(=O)[C@H](C(=O)O)c3ccsc3)C(=O)N2[C@H]1C(=O)O"
  VAL: "4 µg/mL"
- SMILES: "CC1(C)S[C@@H]2[C@H](NC(=O)[C@H](N)c3ccc(O)cc3)C(=O)N2[C@H]1C(=O)O"
  VAL: "0.5 µg/mL"
- SMILES: "CCn1cc(C(=O)O)c(=O)c2cc(F)c(N3CCNCC3)cc21"
  VAL: "64 µg/mL"

Reading of MICs in the presence or absence of spermine (1 mM): Spermine for Cc1onc(-c2ccccc2Cl)c1C(=O)N[C@@H]1C(=O)N2[C@@H]1SC(C)(C)[C@@H]2C(=O)O with methicillin resistant Staphylococcus aureus (MRSA) Mu50: 1 µg/mL

* * *

- Test system: MRSA Staphylococcus aureus 700699
- PROCEDURE_SUMMARY: MIC of antibiotics against MRSA Staphylococcus aureus 700699 with or without spermine
- Format: cell-based
- CONDITIONS_USED: Staphylococcus aureus, MRSA; no spermine; read-out: MICs in the absence or presence of spermine: No add
// MIC lookup, one value per entry
# unit: µg/mL | format: bare number

- SMILES: "CC1(C)S[C@@H]2[C@H](NC(=O)[C@H](N)c3ccc(O)cc3)C(=O)N2[C@H]1C(=O)O"
  VAL: 16

Next:
Form: compound = CCN1CCN(C(=O)N[C@@H](C(=O)N[C@@H]2C(=O)N3[C@@H]2SC(C)(C)[C@@H]3C(=O)O)c2ccccc2)C(=O)C1=O ; MIC = 32

* * *

// MIC lookup, one value per entry
- Test system: MRSA Staphylococcus aureus 700699
- PROCEDURE_SUMMARY: MIC of antibiotics against MRSA Staphylococcus aureus 700699 with or without spermine
- Assay type: cell-based
- CONDITIONS_USED: Staphylococcus aureus, MRSA; no spermine; read-out: MICs in the absence or presence of spermine: No add

- MOLECULE: "CC1(C)S[C@@H]2[C@H](NC(=O)[C@H](NC(=O)N3CCNC3=O)c3ccccc3)C(=O)N2[C@H]1C(=O)O [Azlocillin]"
  MIC: "16 µg/mL"
- MOLECULE: "CC1(C)S[C@@H]2[C@H](NC(=O)C(C(=O)O)c3ccccc3)C(=O)N2[C@H]1C(=O)O (stereo partly shown) [Carbenicillin]"
  MIC: "256 µg/mL"
- MOLECULE: "Cc1onc(-c2ccccc2Cl)c1C(=O)N[C@@H]1C(=O)N2[C@@H]1SC(C)(C)[C@@H]2C(=O)O [Cloxacillin]"
  MIC: "> 256 µg/mL"
- MOLECULE: "CC(C)(O/N=C(\\C(=O)N[C@@H]1C(=O)N2C(C(=O)[O-])=C(C[n+]3ccccc3)CS[C@H]12)c1csc(N)n1)C(=O)O [Ceftazidime]"
  MIC: "256 µg/mL"
- MOLECULE: "O=C(Cc1cccs1)N[C@@H]1C(=O)N2C(C(=O)[O-])=C(C[n+]3ccccc3)CS[C@H]12 [Cephaloridine]"
  MIC: "16 µg/mL"

Reading of MIC for CC(=O)OCC1=C(C(=O)O)N2C(=O)[C@@H](NC(=O)Cc3cccs3)[C@H]2SC1 [Cephalothin] with MRSA Staphylococcus aureus 700699: 32 µg/mL

Reading of MIC for CO/N=C(\C(=O)N[C@@H]1C(=O)N2C(C(=O)O)=C(CSc3nc(=O)c(=O)[nH]n3C)CS[C@H]12)c1csc(N)n1 [Ceftriaxone] with MRSA Staphylococcus aureus 700699: > 512 µg/mL
